Recorded below: GPR139 Antagonist Activity Lipophilic Efficiency (logD), system GPR139 (Homo sapiens, UniProt Q6DWJ6).
endpoint: GPR139 Antagonist Activity Lipophilic Efficiency (logD)

[[record]]
input_smiles = "Cc1ccc(-n2cc(-c3ccccc3)nc2SCC(=O)Nc2ccc(F)cc2)cc1"
meas_value = "−954.3E−3"

[[record]]
input_smiles = "Cc1ccc(CNC(=O)CSc2nc3ccsc3c(=O)n2NC(=O)c2cccc(Br)c2)cc1"
meas_value = 0.81

[[record]]
input_smiles = "O=C(CSc1nc(-c2ccccc2)cn1-c1ccccc1)Nc1ccc(F)cc1"
meas_value = "−672.3E−3"

[[record]]
input_smiles = "Cc1ccc(-c2cn(-c3ccccc3)c(SCC(=O)Nc3ccccc3C)n2)cc1"
meas_value = "−1.5E+0"

[[record]]
input_smiles = "O=C(NCCCN1CCCC1=O)c1ccc(NCc2ccc(F)cc2)c(S(=O)(=O)Nc2cccc(C(F)(F)F)c2)c1"
meas_value = 2.05

[[record]]
input_smiles = "Cc1ccc(-n2cc(-c3ccccc3)nc2SCC(=O)Nc2cccc(C)c2C)cc1"
meas_value = "−1.9E+0"

[[record]]
input_smiles = "COc1ccccc1-n1cc(-c2ccccc2)nc1SCC(=O)Nc1cccc(C)c1C"
meas_value = "−548.5E−3"

[[record]]
input_smiles = "COc1ccc(C2=NN(C3CCCCCC3)C(=O)[C@@H]3CC=CC[C@@H]23)cc1OCCCCOc1ccc(-c2nn[nH]n2)cc1"
meas_value = "−546.E−3"


* * *

Each entry below carries its recorded pKi.
Protein target, amino acids: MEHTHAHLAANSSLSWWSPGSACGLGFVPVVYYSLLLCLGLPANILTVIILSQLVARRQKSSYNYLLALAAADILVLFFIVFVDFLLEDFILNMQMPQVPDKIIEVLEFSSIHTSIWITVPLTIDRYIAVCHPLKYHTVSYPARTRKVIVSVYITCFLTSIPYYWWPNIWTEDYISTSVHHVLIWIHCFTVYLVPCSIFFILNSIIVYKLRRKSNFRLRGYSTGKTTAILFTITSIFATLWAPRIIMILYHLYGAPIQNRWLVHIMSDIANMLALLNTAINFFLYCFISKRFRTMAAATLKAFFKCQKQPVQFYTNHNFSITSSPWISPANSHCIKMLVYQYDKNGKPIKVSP
pKi: −log10 of the molar value.
endpoint: pKi

[[record]]
molecule = "CCOC(=O)C(CC)Oc1ccc2c(C)c(Cc3ccccc3)c(=O)oc2c1 (stereo not shown)"
endpoint = "pKi"
meas_value = 5.74

[[record]]
molecule = "Cc1cc(I)ccc1NC(=O)CSc1cccs1"
endpoint = "pKi"
meas_value = 6.89

[[record]]
molecule = "Nc1cccc(C(=O)Nc2cc(O)n(-c3c(Cl)cc(Cl)cc3Cl)n2)c1"
endpoint = "pKi"
meas_value = 6.04

[[record]]
molecule = "CC(=O)Nc1ccc(Sc2ccc(S(=O)(=O)Nc3ccc(C)cc3C)cc2[N+](=O)[O-])cc1"
endpoint = "pKi"
meas_value = 5.02

[[record]]
molecule = "CCOC(=O)c1c(C)nc2c(c1-c1ccc(F)cc1)C(=O)CC(c1ccc(Cl)cc1)C2 (stereo not shown)"
endpoint = "pKi"
meas_value = 6.01

[[record]]
molecule = "COc1ccc(-c2cccc(NS(=O)(=O)c3ccc(I)cc3)c2)nn1"
endpoint = "pKi"
meas_value = 5.97

[[record]]
molecule = "COc1ccccc1CNC(=O)N1c2ccccc2Sc2ccccc21"
endpoint = "pKi"
meas_value = 5.96

[[record]]
molecule = "CC1CCCC(NC(=O)c2cccc(NS(=O)(=O)c3ccc(Br)cc3)c2)C1C (stereo not shown)"
endpoint = "pKi"
meas_value = 5.52

[[record]]
molecule = "O=C(NCCC1=CCCCC1)N1c2ccccc2Sc2ccccc21"
endpoint = "pKi"
meas_value = 5.77

[[record]]
molecule = "COc1ccc(-c2noc(CN3CCCN(c4ccc(F)cc4)CC3)n2)c(OC)c1OC"
endpoint = "pKi"
meas_value = 5.39

